# protocol_summary: Solubility profile
# condition_details: water
Numbered stars: 1 amine (or outer) side, 2 acyl side, 3 side chain; on linkers, the order of the positions; unused ones are H or OH. Bridge positions count the residues as written; N and C are the ends. Square brackets hold non-standard residues; d marks the D form. Peptide text beside a SMILES is read from it. * marks the point of attachment. NH(2-ClPh) = Clc1ccccc1N*; Dab = NCC[C@H](N)C(=O)O; CO = O=C([*:1])[*:2]
value_kind: solubility

Fill in the blank: the reported solubility of CC(C)C[C@@H]1NC(=O)[C@@H](Cc2ccccc2)NC(=O)[C@H](CCN)NC(=O)[C@@H](NC(=O)[C@H](CCN)NC(=O)[C@@H](NC(=O)[C@H](CCN)NC(=O)Nc2ccccc2Cl)[C@@H](C)O)CCNC(=O)[C@H]([C@@H](C)O)NC(=O)[C@H](CCN)NC(=O)[C@H](CCN)NC1=O [Compound 5] ({NH(2-ClPh)-CO}-[Dab]T[Dab][Dab][Dab][dF]L[Dab][Dab]T; lactam 4-C) is ____.
> 300 mg/mL

---

# protocol_summary: Cell culture cytotoxicity assay (ATP bioluminescence, LLC-PK1)
# Type: cell-based, rat
# condition_details: read-out: EC50, rat kidney proximal tubule cell culture cytotoxicity assay
Numbered stars: 1 amine (or outer) side, 2 acyl side, 3 side chain; on linkers, the order of the positions; unused ones are H or OH. Bridge positions count the residues as written; N and C are the ends. Square brackets hold non-standard residues; d marks the D form. Peptide text beside a SMILES is read from it. * marks the point of attachment. NH(3-Cl-phenyl) = Clc1cccc(N*)c1; Dab = NCC[C@H](N)C(=O)O; CO = O=C([*:1])[*:2]
value_kind: EC50 (µg/mL)
Numbers only here, please. The scale is µg/mL.

For the compound shown here, CC(C)C[C@@H]1NC(=O)[C@@H](Cc2ccccc2)NC(=O)[C@H](CCN)NC(=O)[C@@H](NC(=O)[C@H](CCN)NC(=O)[C@@H](NC(=O)[C@H](CCN)NC(=O)Nc2cccc(Cl)c2)[C@@H](C)O)CCNC(=O)[C@H]([C@@H](C)O)NC(=O)[C@H](CCN)NC(=O)[C@H](CCN)NC1=O [Compound 4] ({NH(3-Cl-phenyl)-CO}-[Dab]T[Dab][Dab][Dab][dF]L[Dab][Dab]T; lactam 4-C) , give the reported EC50.
691

---

# protocol_summary: Dissociation constant (pKa)
Numbered stars: 1 amine (or outer) side, 2 acyl side, 3 side chain; on linkers, the order of the positions; unused ones are H or OH. Bridge positions count the residues as written; N and C are the ends. Square brackets hold non-standard residues; d marks the D form. Peptide text beside a SMILES is read from it. * marks the point of attachment. NH(2-ClPh) = Clc1ccccc1N*; Dab = NCC[C@H](N)C(=O)O; CO = O=C([*:1])[*:2]
value_kind: pKa
// response body must contain only the number

// query pKa value for entry CC(C)C[C@@H]1NC(=O)[C@@H](Cc2ccccc2)NC(=O)[C@H](CCN)NC(=O)[C@@H](NC(=O)[C@H](CCN)NC(=O)[C@@H](NC(=O)[C@H](CCN)NC(=O)Nc2ccccc2Cl)[C@@H](C)O)CCNC(=O)[C@H]([C@@H](C)O)NC(=O)[C@H](CCN)NC(=O)[C@H](CCN)NC1=O [Compound 5] ({NH(2-ClPh)-CO}-[Dab]T[Dab][Dab][Dab][dF]L[Dab][Dab]T; lactam 4-C)
8.17
